Exercise: for every item that follows, state its recorded MIC.
Tested on: Staphylococcus aureus
assayProtocol: Antibacterial activity against Staphylococcus aureus ATCC 29213 after overnight incubation by broth microdilution method
Type: functional
Give just the numeric value; µg/mL need not be written.

Report MIC for C[C@@H](C(=O)OCc1ccccc1)N1SC(C)(C)[C@@H](N2C(=O)[C@@H](N3C(=O)c4ccccc4C3=O)[C@@H]2Cl)C1=O please.
64

Ok, now CC1(C)SN([C@H](C(=O)OCc2ccccc2)c2ccccc2)C(=O)[C@@H]1N1C(=O)[C@@H](N2C(=O)c3ccccc3C2=O)[C@@H]1Cl
32

Another compound to look at: CC1(C)SN(CC(=O)OCc2ccccc2)C(=O)[C@@H]1N1C(=O)[C@@H](N2C(=O)c3ccccc3C2=O)[C@@H]1Cl
64

Quick one: CC1(C)S[C@@H]2[C@H](NC(=O)[C@H](N)c3ccc(O)cc3)C(=O)N2[C@H]1C(=O)O
1

And what about the compound CC1(C)SN(Cc2ccccc2)C(=O)[C@@H]1N1C(=O)[C@@H](N2C(=O)c3ccccc3C2=O)[C@@H]1Cl ?
128
